Data origin: patent US12145923B2

- assay-text: Rat pharmacokinetic test
- Format: in vivo
- particulars: male, plasma, intravenous injection, 10 mg/kg
parameter-measured: AUC(0-inf) (ng·h/mL)

a. CCOc1cc2c(cc1OC)CCN(C=O)[C@H]2CCc1c[nH]c2ccc(OC)cc12 [(S)-C8]
b. CCOc1cc2c(cc1OC)CCN(C=O)[C@H]2CCc1c[nH]c2cc(C)ccc12 [(S)-C7]
Ask | Hi there! Just curious which has the higher AUC(0-inf) between a and b . Returns: label corresponding to the selected item.
Reply | b

###

- assay-text: Rat pharmacokinetic test
- Format: in vivo
- particulars: male, plasma, intravenous injection, 10 mg/kg
- Method: Six male healthy rats weighing 150-200 g were randomly divided into 2 groups (n=3). Compounds 14, 16, 17, 18, 22 and 29 of the present invention were administered by gavage and intravenous injection, respectively, at a administration volume of 10 mL/kg. […] The concentration of compounds in rat plasma was determined by LC/MS/MS. The pharmacokinetic parameters after administration were calculated by a non-compartmental model of DAS 3.0 software.
parameter-measured: MRT (min)

I. CCOc1cc2c(cc1OC)CCN(C=O)[C@H]2CCc1c[nH]c2ccc(OC)cc12 [(S)-C8]
II. CCOc1cc2c(cc1OC)CCN(C=O)[C@H]2CCc1c[nH]c2cc(C)ccc12 [(S)-C7]
Ask | Hi there! Just curious which has the higher MRT between I and II . Returns: label corresponding to the selected item.
Reply | II

###

- tested-system: Human PDE4D catalytic domain (Homo sapiens (Human))
- Sequence (Q08499 386-715): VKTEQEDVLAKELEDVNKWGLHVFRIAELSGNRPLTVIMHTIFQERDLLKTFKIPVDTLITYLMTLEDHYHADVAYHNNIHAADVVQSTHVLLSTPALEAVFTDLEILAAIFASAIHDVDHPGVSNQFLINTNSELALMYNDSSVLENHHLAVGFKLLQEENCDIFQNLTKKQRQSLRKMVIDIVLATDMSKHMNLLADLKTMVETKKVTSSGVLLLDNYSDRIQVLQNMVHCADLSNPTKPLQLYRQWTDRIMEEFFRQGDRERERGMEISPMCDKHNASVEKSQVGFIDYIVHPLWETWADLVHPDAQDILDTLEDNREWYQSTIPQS
- assay-text: Scintillation Proximity Assay (SPA), inhibition of PDE4D catalytic domain activity
- Format: biochemical
- particulars: Compound concentration: 1 μM; read-out: PDE4D enzyme activity inhibition rate %
parameter-measured: inhibition at 1 µM (%)

Check out these entries, answers already filled in.
Ask | For the molecule CCOc1cc2c(cc1OC)CCN(S(=O)(=O)c1ccccc1F)[C@H]2CCc1c[nH]c2ccc(OC)cc12 [(S)-C57] , give its measured inhibition at 1 µM value.
Reply | 66.5

Ask | For the molecule COc1cc2c(cc1OC)C(CCc1c[nH]c3ccccc13)N(CC(F)(F)F)CC2 (centres unmarked) [Compound B6] , give its measured inhibition at 1 µM value.
Reply | 19.5

Ask | For the molecule COc1cc2c(cc1OC)C(CCc1c[nH]c3ccccc13)N(C(=O)c1ccncc1)CC2 (centres unmarked) [Compound B1] , give its measured inhibition at 1 µM value.
Reply | 30.7

Ask | For the molecule CCOc1cc2c(cc1OC)CCN(C=O)[C@H]2CCc1c[nH]c2ccc(OC)cc12 [(S)-C8] , give its measured inhibition at 1 µM value.
Reply | 95

Ask | For the molecule COc1cc2c(cc1OC)[C@H](CCc1csc3ccccc13)N(C=O)CC2 [(S)-C61] , give its measured inhibition at 1 µM value.
Reply | 70.8

I. CCOc1cc2c(cc1OC)CCN(S(=O)(=O)c1ccc(F)cc1F)[C@H]2CCc1c[nH]c2ccc(OC)cc12 [(S)-C52]
II. COc1cc2c(cc1OC1CCCC1)C(CCc1c[nH]c3ccccc13)N(C=O)CC2 (centres unmarked) [Compound A2]
Ask | Which value of inhibition at 1 µM is smaller, the one for I or the one for II ? Returns: label corresponding to the selected item.
Reply | II
(II: 19.2%, I: 36.8%)
